src = the array DNA melting data of Ke et al. (doi:10.1101/2024.01.08.574731)

test: melting temperature; fluorescence melt of hairpins on a sequencing array, two-state fit, raised by 9.35 °C to match UV melts; settings: sodium 0.088 M
READOUT_KIND: Tm (°C)
Answer with a number only, understood to be in °C.

Entry under test: GCGTGAGACGC ((((...)))) . Its Tm was 51

// field: Tm; key: GGGTACTCGAAAGAGCCC (((..(((....)))))) ; value = 39.6

Given item GCTAACCCGAAAGGGAGC (((..(((....)))))) , the value recorded as its Tm is 41.1

Kindly note the recorded Tm for GGTCCCGGAAACAGGACC (((((.(....).))))) , which is 49.7

Per the record, GCATAGGGAAACCTGTGC (((.(((....))).))) has Tm of 50.3

Reported Tm ( GATCCTCATTAGGATC ((((((....)))))) ) = 51.1

The recorded Tm for entry GATCCCGAAAGGGAGATC ((((((....)))..))) equals 50.5

Kindly note the recorded Tm for GCACTGCGAAAGCTATGC (((..((....))..))) , which is 40.3

Reported Tm ( GTAACGCGAAAGCGTAC (((.(((....)))))) ) = 49
